Test system: SW620 cells
Experiment: Cell cycle distribution by flow cytometry, SW620
Format: cell-based, human
Conditions: SW620, 48 h, concentration equal to IC75 of (S)-1 / (R)-1; mean ± SEM, n = 3
Experimental: Ispinesib leads to the formation of monopolar mitotic spindles and a blockade of chromosome segregation in cancer cells. Using flow cytometry, we assessed the cell cycle distribution in the SW620 and SW620E cells exposed to the studied compounds for 24 and 48 h. […] Both complexes, 3c and 3d, decrease the percentage of cells in the G1/G0 phase and increase the percentage in the S and G2/M phases. […]
Each entry below carries its recorded Cell cycle fraction G2/M, 48 h.
readout-kind: Cell cycle fraction G2/M, 48 h

INSERT INTO assay_data (compound, recorded_result) VALUES
  ('CC(C)[C@@H](N=Cc1ccccn1)c1nc2cc(Cl)ccc2c(=O)n1Cc1ccccc1.Cc1c(C)c(C)[c-](C)c1C.F[P-](F)(F)(F)(F)F.[Cl-].[Ir+3] [Compound 3d, [(Cp*)Ir((R)-2)Cl]PF6]', '55.9 ± 1.1%'),
  ('CC(C)[C@@H](N=Cc1ccccn1)c1nc2cc(Cl)ccc2c(=O)n1Cc1ccccc1.Cc1c(C)c(C)[c-](C)c1C.F[P-](F)(F)(F)(F)F.[Cl-].[Rh+3] [Compound 3c, [(Cp*)Rh((R)-2)Cl]PF6]', '54.5 ± 1.8%'),
  ('CC(C)[C@@H](N=Cc1ccccn1)c1nc2cc(Cl)ccc2c(=O)n1Cc1ccccc1.Cc1ccc(C(C)C)cc1.F[P-](F)(F)(F)(F)F.[Cl-].[Os+2] [Compound 3b, [(cym)Os((R)-2)Cl]PF6]', '45.0 ± 0.5%');

* * *

Measured IC50 values are reported for all entries that follow.
tested on: SW620E; test: Neutral red uptake antiproliferative assay, MDR line SW620E; format: cell-based, human; conditions: exposure time 72 h, n = 3; ABCC1- and ABCB1-overexpressing MDR line
readout-kind: IC50 (µM)

INSERT INTO results (molecule, units_label, recorded_result) VALUES
  ('CC(C)[C@H](N=Cc1ccccn1)c1nc2cc(Cl)ccc2c(=O)n1Cc1ccccc1.Cc1c(C)c(C)[c-](C)c1C.F[P-](F)(F)(F)(F)F.[Cl-].[Rh+3] [Compound 4c, [(Cp*)Rh((S)-2)Cl]PF6]', 'µM', 6.2),
  ('CC(C)[C@H](N=Cc1ccccn1)c1nc2cc(Cl)ccc2c(=O)n1Cc1ccccc1.Cc1ccc(C(C)C)cc1.F[P-](F)(F)(F)(F)F.[Cl-].[Ru+2] [Compound 4a, [(cym)Ru((S)-2)Cl]PF6]', 'µM', 5.46),
  ('CC(C)[C@@H](N=Cc1ccccn1)c1nc2cc(Cl)ccc2c(=O)n1Cc1ccccc1.Cc1c(C)c(C)[c-](C)c1C.F[P-](F)(F)(F)(F)F.[Cl-].[Ir+3] [Compound 3d, [(Cp*)Ir((R)-2)Cl]PF6]', 'µM', 1.02),
  ('CC(C)[C@H](N=Cc1ccccn1)c1nc2cc(Cl)ccc2c(=O)n1Cc1ccccc1.Cc1c(C)c(C)[c-](C)c1C.F[P-](F)(F)(F)(F)F.[Cl-].[Ir+3] [Compound 4d, [(Cp*)Ir((S)-2)Cl]PF6]', 'µM', 0.663),
  ('CC(C)[C@@H](N=Cc1ccccn1)c1nc2cc(Cl)ccc2c(=O)n1Cc1ccccc1.Cc1c(C)c(C)[c-](C)c1C.F[P-](F)(F)(F)(F)F.[Cl-].[Rh+3] [Compound 3c, [(Cp*)Rh((R)-2)Cl]PF6]', 'µM', 0.88),
  ('CC(C)[C@@H](N=Cc1ccccn1)c1nc2cc(Cl)ccc2c(=O)n1Cc1ccccc1.Cc1ccc(C(C)C)cc1.F[P-](F)(F)(F)(F)F.[Cl-].[Ru+2] [Compound 3a, [(cym)Ru((R)-2)Cl]PF6]', 'µM', 5.52),
  ('CC(C)[C@@H](N=Cc1ccccn1)c1nc2cc(Cl)ccc2c(=O)n1Cc1ccccc1.Cc1ccc(C(C)C)cc1.F[P-](F)(F)(F)(F)F.[Cl-].[Os+2] [Compound 3b, [(cym)Os((R)-2)Cl]PF6]', 'µM', 3.52),
  ('CC(C)[C@H](N=Cc1ccccn1)c1nc2cc(Cl)ccc2c(=O)n1Cc1ccccc1.Cc1ccc(C(C)C)cc1.F[P-](F)(F)(F)(F)F.[Cl-].[Os+2] [Compound 4b, [(cym)Os((S)-2)Cl]PF6]', 'µM', 12.8);
